Reference source for all entries: the supplement of paper PMC10307832

System: NCI-H358
assay method text: relative viability (nuclei count vs DMSO), 5 days (fraction); higher = more cells survive
condition parameters: first compound 0.01 µM
relative viability reference
Would you mind answering with just the numeric figure?

These recorded examples may help you get a feel for the data.
{"columns": ["compound", "test target", "outcome measure", "value measured"],
 "data": [
  ["Cc1cn(-c2cc(NC(=O)c3ccc(C)c(Nc4nccc(-c5cccnc5)n4)c3)cc(C(F)(F)F)c2)cn1 [Nilotinib] + CC(=O)c1c(C)c2cnc(Nc3ccc(N4CCNCC4)cn3)nc2n(C2CCCC2)c1=O [Palbociclib] (partner 0.5 µM)", "NCI-H358", "relative viability", 0.148],
  ["Cc1cn(-c2cc(NC(=O)c3ccc(C)c(Nc4nccc(-c5cccnc5)n4)c3)cc(C(F)(F)F)c2)cn1 [Nilotinib] + C[C@@H](Oc1cc(-c2cnn(C3CCNCC3)c2)cnc1N)c1c(Cl)ccc(F)c1Cl [Crizotinib] (partner 1 µM)", "NCI-H358", "relative viability", 0.407],
  ["Cc1cn(-c2cc(NC(=O)c3ccc(C)c(Nc4nccc(-c5cccnc5)n4)c3)cc(C(F)(F)F)c2)cn1 [Nilotinib] + COc1cccc2cc(-c3nc([C@H]4CC[C@H](C(=O)O)CC4)n4ncnc(N)c34)[nH]c12 [OSI-027] (partner 0.5 µM)", "NCI-H358", "relative viability", 0.655]
]}

compound Cc1cn(-c2cc(NC(=O)c3ccc(C)c(Nc4nccc(-c5cccnc5)n4)c3)cc(C(F)(F)F)c2)cn1 [Nilotinib] + O=C(CCCCCCC(=O)Nc1ccccc1)NO [Vorinostat] (partner 1 µM) , relative viability observed: 0.834
